Tested on: 885724-159-R-J1-PDC KRAS PDC multicell spheroid viability;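 note: spheroids exposed to agents for 7 days before readout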
test name: Anticancer human tumor 885724-159-R-J1-PDC patient-derived pancreatic adenocarcinoma cell line growth inhibition [KRAS2]
recorded conditions: curve of first compound; second compound 1 µM
measured property: pIC50
The scale used: pIC50 is minus the common logarithm of the concentration in molar units.

CC(C)n1nc(-c2ccc3oc(N)nc3c2)c2c(N)ncnc21 + C=CC(=O)N1CCN(c2nc(=O)n(-c3c(C)ccnc3C(C)C)c3nc(-c4c(O)cccc4F)c(F)cc23)C(C)C1	7.62

Then there is this compound:
# compound CC1(C)CCC(CN2CCN(c3ccc(C(=O)NS(=O)(=O)c4ccc(NCC5CCOCC5)c([N+](=O)[O-])c4)c(Oc4cnc5[nH]ccc5c4)c3)CC2)=C(c2ccc(Cl)cc2)C1 + C=CC(=O)N1CCN(c2nc(=O)n(-c3c(C)ccnc3C(C)C)c3nc(-c4c(O)cccc4F)c(F)cc23)C(C)C1 ; its pIC50 = 5.27
